Where do these numbers come from? They come from patent US20050222146A1.

# System: Recombinant Human MMP-13 (Homo sapiens)
# Protocol details: MMP-13 inhibition, MMP-13 specific fluorescent substrate with quencher
# Measurement parameters: synthetic substrate 7-MCA-Pro-CHA-Gly-NVal-His-Ala-DPA, 25° C. for 1 h; read-out: Experimental Example 3 IC50 MMP13
pIC50: −log10 of the molar value.
Some compounds, each annotated with its measured pIC50.

Please review the following examples before continuing.
| Compound | pIC50 |
| --- | --- |
| O=C(O)[C@@]12C[C@]1(c1ccccc1)CCCN2S(=O)(=O)c1ccc(-c2cc(C(F)(F)F)on2)s1 (relative stereo) [Example 2-22] | ≤ 6.00 |
| O=C(CN([C@]1(C(=O)O)C[C@H]1c1ccccc1)S(=O)(=O)c1ccc(-c2ccc(Cl)cc2)s1)N1CCOCC1 [Example 2-16] | ≤ 6.00 |
| O=C(O)C1(N(CCO)S(=O)(=O)c2ccc(-c3ccc(Cl)cc3)s2)CC1c1ccccc1 (stereo not drawn) [Example 2-04] | ≤ 6.00 |
| O=C(O)CN([C@@]1(C(=O)O)C[C@@H]1c1ccccc1)S(=O)(=O)c1ccc(-c2ccc(Cl)cc2)s1 [Example 2-10] | ≤ 5.00 |
| O=C(O)[C@@]12C[C@]1(c1ccccc1)COC(CO)CN2S(=O)(=O)c1ccc(-c2ccc(Cl)cc2)s1 (relative stereo) [Example 2-26] | ≤ 6.00 |

Shift focus to the following entry.
## Task // fetch pIC50 given entry CN1CCN(C(=O)CN([C@]2(C(=O)O)C[C@H]2c2ccccc2)S(=O)(=O)c2ccc(-c3ccc(Cl)cc3)s2)CC1 [Example 2-17]
## Result ≤ 6.00

###

Lab note: pIC50 readings collected with MMP-1 (Homo sapiens) for the following compounds.
Sequence (P03956 100-469, species assumed): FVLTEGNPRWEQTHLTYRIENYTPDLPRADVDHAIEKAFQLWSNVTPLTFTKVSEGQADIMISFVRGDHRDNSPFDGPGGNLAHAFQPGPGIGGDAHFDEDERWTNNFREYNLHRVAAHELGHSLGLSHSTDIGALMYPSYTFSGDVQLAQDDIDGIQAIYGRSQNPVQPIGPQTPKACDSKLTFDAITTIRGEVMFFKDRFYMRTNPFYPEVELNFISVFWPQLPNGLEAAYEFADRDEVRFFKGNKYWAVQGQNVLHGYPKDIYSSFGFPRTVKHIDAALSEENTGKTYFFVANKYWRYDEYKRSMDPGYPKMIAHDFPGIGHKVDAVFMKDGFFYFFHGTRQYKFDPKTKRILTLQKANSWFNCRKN
pIC50: −log10 of the molar value.

## Task Report its pIC50 with MMP-1 (Homo sapiens) as the test system: O=C(O)CN([C@]1(C(=O)O)C[C@H]1c1ccccc1)S(=O)(=O)c1ccc(-c2cc(C(F)(F)F)on2)s1
## Result ≤ 5.00

###

# System: Recombinant Human MMP-13 (Homo sapiens, UniProt P45452)
# Protocol details: MMP-13 inhibition, MMP-13 specific fluorescent substrate with quencher
# Measurement parameters: synthetic substrate 7-MCA-Pro-CHA-Gly-NVal-His-Ala-DPA, 25° C. for 1 h; read-out: Experimental Example 3 IC50 MMP13
pIC50: −log10 of the molar value.
Measurement type: pIC50

Some molecules with known pIC50 results, for comparison:
| Molecule | Reported value |
| --- | --- |
| O=C(OCCCN([C@]1(C(=O)O)C[C@H]1c1ccccc1)S(=O)(=O)c1ccc(-c2ccc(Cl)cc2)s1)N1CCOCC1 | ≤ 6.00 |
| CN([C@@]1(C(=O)O)C[C@@H]1c1ccccc1)S(=O)(=O)c1ccc(-c2ccc(Cl)cc2)s1 | ≤ 5.00 |
| O=C(O)[C@@]12C[C@@]1(c1ccccc1)COCN2S(=O)(=O)c1ccc(-c2ccc(Cl)cc2)s1 (relative stereo) | ≤ 6.00 |
| O=C(OCCN([C@]1(C(=O)O)C[C@H]1c1ccccc1)S(=O)(=O)c1ccc(-c2ccc(Cl)cc2)s1)N1CCOCC1 | > 6.00 |
| O=C(O)[C@@]12C[C@]1(c1ccccc1)CCN2S(=O)(=O)c1ccc(-c2ccc(Cl)cc2)s1 (relative stereo) | ≤ 6.00 |

## Task Determine its reported pIC50: CN([C@]1(C(=O)O)C[C@@]1(CN1CCOCC1)c1ccccc1)S(=O)(=O)c1ccc(-c2cc(C(F)(F)F)on2)s1 (relative stereo)
## Result ≤ 5.00

## Task Return pIC50 for the following molecule: Nc1nnnn1CCN([C@]1(C(=O)O)C[C@H]1c1ccccc1)S(=O)(=O)N1CCN(c2ccc(C(F)(F)F)cc2)CC1 (relative stereo)
## Result ≤ 5.00

## Task For the molecule O=C(O)CN([C@]1(C(=O)O)C[C@H]1c1ccccc1)S(=O)(=O)c1ccc(-c2cc(C(F)(F)F)on2)s1 , give its measured pIC50 value.
## Result ≤ 6.00
